# System: mouse neuroblastoma Neuro 2A cells
# PROCEDURE_DETAILS: Cytotoxicity against neuroblastoma Neuro 2A cells (nonspecific esterase activity assay)
# Type: cell-based
# CONDITIONS: mouse neuroblastoma Neuro 2A cells
QUANTITY_NAME: pEC50
One number for each entry, as −log10 of the molar value.

Query: Request the reported pEC50 associated with C=C(C)CCC[C@]1(C)OC(=O)[C@]23CC=C4[C@@H](CC[C@H]5C(C)(C)[C@@H](O[C@@H]6OC[C@@H](O)[C@H](O)[C@H]6O[C@@H]6O[C@H](C)[C@@H](O[C@@H]7O[C@H](COS(=O)(=O)[O-])[C@@H](O)[C@H](O[C@@H]8O[C@H](COS(=O)(=O)[O-])[C@@H](O)[C@H](OC)[C@H]8O)[C@H]7O)[C@H](O)[C@H]6O)CC[C@]45C)[C@]2(C)CC(=O)[C@@H]31.[Na+].[Na+] [Psolusoside A, reference compound]
Result: 5.54

The origin of these recorded values is paper PMC6627558.
